experimental_target: human urokinase (Homo sapiens, UniProt P00749)
assay_explanation: biochemical
recorded_conditions: Table 2; S-2444 substrate, pH 8.8, 37° C.; read-out: Urokinase S-2444 (I50)
Counter-ions that a name gives are not always drawn.
Attribute: IC50

Example entries begin here.
molecule: CCOC(=O)C1CCCC(NC(=O)[C@H](Cc2ccc(OCc3ccc(F)cc3)cc2)NC(=O)c2ccc(CN)cc2)C1 (stereo partly drawn) [compound 105]
IC50: > 200 µM

molecule: Cc1ccc(NC(=O)[C@H](Cc2ccc(OCc3ccccc3)cc2)NC(=O)c2ccc(CN)cc2)cc1 [compound 63]
IC50: > 100 µM

molecule: CC1CCCC(NC(=O)[C@H](Cc2ccc(OCc3ccccc3)cc2)NC(=O)c2ccc(CN)cc2)C1C (stereo partly drawn) [compound 82]
IC50: > 400 µM

molecule: COc1ccc(NC(=O)[C@H](Cc2ccc(OCc3ccccc3)cc2)NC(=O)c2ccc(CN)cc2)cn1 [compound 140]
IC50: > 100 µM

molecule: CC1CCC(NC(=O)[C@H](Cc2ccc(OCc3ccccc3)cc2)NC(=O)c2ccc(CN)cc2)CC1C (stereo partly drawn) [Compound No. 80, hydrochloride]
IC50: > 400 µM

Requested read-out IC50, target or system human urokinase (Homo sapiens, UniProt P00749), entry NCc1ccc(C(=O)N[C@@H](Cc2ccc(OCc3ccccc3)cc2)C(=O)NC2CCC(O)CC2)cc1 (stereo partly drawn) [compound 88]
> 200 µM

Item: NCc1ccc(C(=O)N[C@@H](Cc2ccccc2)C(=O)Nc2cccc(C(F)(F)F)c2)cc1 [compound 131]
> 250 µM

Further, for NCc1ccc(C(=O)N[C@@H](Cc2ccc(OCc3ccccc3)cc2)C(=O)N2CCN(C(=O)c3ccccc3)CC2)cc1 [compound 73] ?
> 200 µM

Repeat with NC[C@H]1CC[C@H](C(=O)N[C@@H](Cc2ccc(OCc3ccccc3)cc2)C(=O)N2CCC(C(=O)c3ccccc3)CC2)CC1 [compound 48]
> 200 µM
